- method: Inhibition of N-terminal GST-tagged recombinant human MKK3 […]/T193E mutant expressed in baculovirus infected Sf9 insect cells using STK-3-biotin as substrate at 5 uM preincubated for 30 mins followed by substrate/ATP addition measured after 90 mins by TR-FRET assay relative to control
- run.parameters: time 120.0 min
The source made the active and inactive calls. The rule behind the calls is not given here.
quantity.measured: inhibition

Check out these entries, answers already filled in.
CC(C)(C)n1nc(-c2ccc(F)c(Cl)c2)c2c(N)ncnc21 ... 39.3%
CC(C)(C)n1nc(-c2ccccc2)c2c(N)ncnc21 ... 34.8%
CC(C)(C)n1nc(-c2cccc3cn[nH]c23)c2c(N)ncnc21 ... inactive
CC(C)(C)n1nc(-c2ccc3ncccc3c2)c2c(N)ncnc21 ... 28.2%
CC(C)(C)n1nc(-c2cccc(Cl)c2F)c2c(N)ncnc21 ... 35.2%
CC(C)(C)n1nc(-c2cccc(Cl)c2)c2c(N)ncnc21 ... 19.8%
CC(C)(C)n1nc(-c2cc(F)c(O)c(F)c2)c2c(N)ncnc21 ... 44.9%
CC(C)(C)n1nc(-c2cccc3cnccc23)c2c(N)ncnc21 ... 12.4%
CC(C)(C)n1nc(-c2ccc(S(=O)(=O)NC3CC3)cc2)c2c(N)ncnc21 ... 12.6%
CC(C)(C)n1nc(-c2ccc3[nH]ccc3c2)c2c(N)ncnc21 ... 58.2%

Ask: I'd like to know its inhibition. The compound in question is `CC(C)(C)n1nc(-c2ccccc2F)c2c(N)ncnc21`
Result: 37.4%

Ask: I'd like to know its inhibition. The compound in question is `CC(C)NC(=O)c1ccc(-c2nn(C(C)(C)C)c3ncnc(N)c23)cc1`
Result: 26.4%

Ask: I'd like to know its inhibition. The compound in question is `CC(C)(C)n1nc(-c2cc(Cl)cc(Cl)c2)c2c(N)ncnc21`
Result: 23.4%

Ask: I'd like to know its inhibition. The compound in question is `CC(C)(C)n1nc(-c2cccc(C(=O)NC3CC3)c2)c2c(N)ncnc21`
Result: 7.1%

Ask: I'd like to know its inhibition. The compound in question is `CC(C)(C)n1nc(-c2ccc(N)c3ccccc23)c2c(N)ncnc21`
Result: 54.8%

Ask: I'd like to know its inhibition. The compound in question is `CC(C)(C)n1nc(-c2ccnc3ccccc23)c2c(N)ncnc21`
Result: 3.4%

Ask: I'd like to know its inhibition. The compound in question is `CC(C)(C)n1nc(-c2ccc(F)c(C#N)c2)c2c(N)ncnc21`
Result: 35.6%

Ask: I'd like to know its inhibition. The compound in question is `CC(C)(C)n1nc(-c2ccc(F)c(C(=O)NCCO)c2)c2c(N)ncnc21`
Result: 5.2%

Ask: I'd like to know its inhibition. The compound in question is `CC(C)(C)n1nc(-c2cccc(C#N)c2)c2c(N)ncnc21`
Result: inactive

###

- method: Aqueous solubility of compound
- Format: physicochemical
- run.parameters: water (aqueous)
quantity.measured: solubility (µg/mL)
Express it in µg/mL; write the number only.

Ask: I'd like to know its solubility. The compound in question is `CC(C)n1nc(-c2cc3cc(O)ccc3[nH]2)c2c(N)ncnc21`
Result: 6
